# Tested on: Enterococcus
# ASSAY_SUMMARY: Activity of Enterococcus APH(3')-3a
MEASUREMENT_KIND: Vmax (µmol/min/mg)

NC[C@@H]1O[C@H](O[C@H]2[C@@H](O)[C@H](O[C@@H]3[C@@H](O)[C@H](N)C[C@H](N)[C@H]3O[C@H]3O[C@H](CN)[C@@H](O)[C@H](O)[C@H]3N)O[C@@H]2CNC(=O)[C@H]2CCCN2)[C@H](N)[C@@H](O)[C@@H]1O : 0.72
NCC(=O)NC[C@H]1O[C@@H](O[C@@H]2[C@@H](O)[C@H](N)C[C@H](N)[C@H]2O[C@H]2O[C@H](CN)[C@@H](O)[C@H](O)[C@H]2N)[C@H](O)[C@@H]1O[C@H]1O[C@@H](CN)[C@@H](O)[C@H](O)[C@H]1N : 0.88

###

# System: Enterococcus
# ASSAY_SUMMARY: Activity of Enterococcus APH(3')-3a
Km for assorted molecules
MEASUREMENT_KIND: Km (µM)

NC[C@@H]1O[C@H](O[C@H]2[C@@H](O)[C@H](O[C@@H]3[C@@H](O)[C@H](N)C[C@H](N)[C@H]3O[C@H]3O[C@H](CN)[C@@H](O)[C@H](O)[C@H]3N)O[C@@H]2CNC(=O)[C@@H]2CCCN2)[C@H](N)[C@@H](O)[C@@H]1O : 80
NCC[C@H](O)C(=O)N[C@@H]1C[C@H](N)[C@@H](O[C@H]2O[C@H](CN)[C@@H](O)[C@H](O)[C@H]2O)[C@H](O)[C@H]1O[C@H]1O[C@H](CO)[C@@H](O)[C@H](N)[C@H]1O [AMIKACIN] : 57.4
CCCCCCC(=O)NC[C@H]1O[C@@H](O[C@@H]2[C@@H](O)[C@H](N)C[C@H](N)[C@H]2O[C@H]2O[C@H](CN)[C@@H](O)[C@H](O)[C@H]2N)[C@H](O)[C@@H]1O[C@H]1O[C@@H](CN)[C@@H](O)[C@H](O)[C@H]1N : 48
CC(=O)NCC1CN(Cc2cn(C[C@H]3O[C@@H](O[C@@H]4[C@@H](O)[C@H](N)C[C@H](N)[C@H]4O[C@H]4O[C@H](CN)[C@@H](O)[C@H](O)[C@H]4N)[C@H](O)[C@@H]3O[C@H]3O[C@@H](CN)[C@@H](O)[C@H](O)[C@H]3N)nn2)C(=O)O1 (some centres undefined) : 160

###

kcat/Km for assorted compounds
# System: Enterococcus
# ASSAY_SUMMARY: Ratio of kcat to Km of Enterococcus APH(3')-3a
MEASUREMENT_KIND: kcat/Km (×10⁴ /M/s)

NC[C@@H]1O[C@H](O[C@H]2[C@@H](O)[C@H](O[C@@H]3[C@@H](O)[C@H](N)C[C@H](N)[C@H]3O[C@H]3O[C@H](CN)[C@@H](O)[C@H](O)[C@H]3N)O[C@@H]2CNC(=O)[C@H]2CCCN2)[C@H](N)[C@@H](O)[C@@H]1O : 0.51
NC[C@@H]1O[C@H](O[C@H]2[C@@H](O)[C@H](O[C@@H]3[C@@H](O)[C@H](N)C[C@H](N)[C@H]3O[C@H]3O[C@H](CN)[C@@H](O)[C@H](O)[C@H]3N)O[C@@H]2Cn2cc(CNC(=O)[C@@H]3CCCN3)nn2)[C@H](N)[C@@H](O)[C@@H]1O : 0.14
CCCCCCc1cn(C[C@H]2O[C@@H](O[C@@H]3[C@@H](O)[C@H](N)C[C@H](N)[C@H]3O[C@H]3O[C@H](CN)[C@@H](O)[C@H](O)[C@H]3N)[C@H](O)[C@@H]2O[C@H]2O[C@@H](CN)[C@@H](O)[C@H](O)[C@H]2N)nn1 : 0.3
NC[C@@H]1O[C@H](O[C@H]2[C@@H](O)[C@H](O[C@@H]3[C@@H](O)[C@H](N)C[C@H](N)[C@H]3O[C@H]3O[C@H](CN)[C@@H](O)[C@H](O)[C@H]3N)O[C@@H]2CNC(=O)[C@@H](N)Cc2c[nH]c3ccccc23)[C@H](N)[C@@H](O)[C@@H]1O : 0.1

###

# Test system: Enterococcus
# ASSAY_SUMMARY: Activity of Enterococcus APH(3')-3a
MEASUREMENT_KIND: kcat (s⁻¹)

NC[C@@H]1O[C@H](O[C@H]2[C@@H](O)[C@H](O[C@@H]3[C@@H](O)[C@H](N)C[C@H](N)[C@H]3O[C@H]3O[C@H](CN)[C@@H](O)[C@H](O)[C@H]3N)O[C@@H]2CNC(=O)[C@@H](N)Cc2c[nH]c3ccccc23)[C@H](N)[C@@H](O)[C@@H]1O : 0.29
C[C@@H](N)C(=O)NC[C@H]1O[C@@H](O[C@@H]2[C@@H](O)[C@H](N)C[C@H](N)[C@H]2O[C@H]2O[C@H](CN)[C@@H](O)[C@H](O)[C@H]2N)[C@H](O)[C@@H]1O[C@H]1O[C@@H](CN)[C@@H](O)[C@H](O)[C@H]1N : 0.41

###

# Test system: Enterococcus
# ASSAY_SUMMARY: Activity of Enterococcus APH(3')-3a
# note: exactly 0.3 s⁻¹ is not below, so it is 0.0; use 1.0 for kcat strictly under it

NCCCC[C@@H](N)C(=O)NC[C@H]1O[C@@H](O[C@@H]2[C@@H](O)[C@H](N)C[C@H](N)[C@H]2O[C@H]2O[C@H](CN)[C@@H](O)[C@H](O)[C@H]2N)[C@H](O)[C@@H]1O[C@H]1O[C@@H](CN)[C@@H](O)[C@H](O)[C@H]1N : 0.0
NCCCC[C@H](N)C(=O)NC[C@H]1O[C@@H](O[C@@H]2[C@@H](O)[C@H](N)C[C@H](N)[C@H]2O[C@H]2O[C@H](CN)[C@@H](O)[C@H](O)[C@H]2N)[C@H](O)[C@@H]1O[C@H]1O[C@@H](CN)[C@@H](O)[C@H](O)[C@H]1N : 0.0
C[C@H](N)C(=O)NC[C@H]1O[C@@H](O[C@@H]2[C@@H](O)[C@H](N)C[C@H](N)[C@H]2O[C@H]2O[C@H](CN)[C@@H](O)[C@H](O)[C@H]2N)[C@H](O)[C@@H]1O[C@H]1O[C@@H](CN)[C@@H](O)[C@H](O)[C@H]1N : 0.0
NC[C@@H]1O[C@H](O[C@H]2[C@@H](O)[C@H](O[C@@H]3[C@@H](O)[C@H](N)C[C@H](N)[C@H]3O[C@H]3O[C@H](CN)[C@@H](O)[C@H](O)[C@H]3N)O[C@@H]2Cn2cc(CNC(=O)[C@@H]3CCCN3)nn2)[C@H](N)[C@@H](O)[C@@H]1O : 1.0
NC[C@@H]1O[C@H](O[C@H]2[C@@H](O)[C@H](O[C@@H]3[C@@H](O)[C@H](N)C[C@H](N)[C@H]3O[C@H]3O[C@H](CN)[C@@H](O)[C@H](O)[C@H]3N)O[C@@H]2CO)[C@H](N)[C@@H](O)[C@@H]1O : 0.0
NC[C@@H]1O[C@H](O[C@H]2[C@@H](O)[C@H](O[C@@H]3[C@@H](O)[C@H](N)C[C@H](N)[C@H]3O[C@H]3O[C@H](CN)[C@@H](O)[C@H](O)[C@H]3N)O[C@@H]2CNC(=O)c2cc(-c3ccccc3)nc3ccccc23)[C@H](N)[C@@H](O)[C@@H]1O : 1.0
NC[C@@H]1O[C@H](O[C@H]2[C@@H](O)[C@H](O[C@@H]3[C@@H](O)[C@H](N)C[C@H](N)[C@H]3O[C@H]3O[C@H](CN)[C@@H](O)[C@H](O)[C@H]3N)O[C@@H]2CNC(=O)[C@H]2CCCN2)[C@H](N)[C@@H](O)[C@@H]1O : 0.0
CCCCCCC(=O)NC[C@H]1O[C@@H](O[C@@H]2[C@@H](O)[C@H](N)C[C@H](N)[C@H]2O[C@H]2O[C@H](CN)[C@@H](O)[C@H](O)[C@H]2N)[C@H](O)[C@@H]1O[C@H]1O[C@@H](CN)[C@@H](O)[C@H](O)[C@H]1N : 0.0
CNCc1cn(C[C@H]2O[C@@H](O[C@@H]3[C@@H](O)[C@H](N)C[C@H](N)[C@H]3O[C@H]3O[C@H](CN)[C@@H](O)[C@H](O)[C@H]3N)[C@H](O)[C@@H]2O[C@H]2O[C@@H](CN)[C@@H](O)[C@H](O)[C@H]2N)nn1 : 0.0

###

# Test system: Escherichia coli
# ASSAY_SUMMARY: Antibacterial activity against Escherichia coli TG1 pET28a plasmid encoded for APH(3')-3a after 12 to 18 hrs
# Assay type: functional
MEASUREMENT_KIND: MIC

CNCc1cn(C[C@H]2O[C@@H](O[C@@H]3[C@@H](O)[C@H](N)C[C@H](N)[C@H]3O[C@H]3O[C@H](CN)[C@@H](O)[C@H](O)[C@H]3N)[C@H](O)[C@@H]2O[C@H]2O[C@@H](CN)[C@@H](O)[C@H](O)[C@H]2N)nn1 : 125 µg/mL
C[C@H](N)C(=O)NC[C@H]1O[C@@H](O[C@@H]2[C@@H](O)[C@H](N)C[C@H](N)[C@H]2O[C@H]2O[C@H](CN)[C@@H](O)[C@H](O)[C@H]2N)[C@H](O)[C@@H]1O[C@H]1O[C@@H](CN)[C@@H](O)[C@H](O)[C@H]1N : 64 µg/mL
NCC(=O)NC[C@H]1O[C@@H](O[C@@H]2[C@@H](O)[C@H](N)C[C@H](N)[C@H]2O[C@H]2O[C@H](CN)[C@@H](O)[C@H](O)[C@H]2N)[C@H](O)[C@@H]1O[C@H]1O[C@@H](CN)[C@@H](O)[C@H](O)[C@H]1N : 32 µg/mL
CC(=O)NCC1CN(Cc2cn(C[C@H]3O[C@@H](O[C@@H]4[C@@H](O)[C@H](N)C[C@H](N)[C@H]4O[C@H]4O[C@H](CN)[C@@H](O)[C@H](O)[C@H]4N)[C@H](O)[C@@H]3O[C@H]3O[C@@H](CN)[C@@H](O)[C@H](O)[C@H]3N)nn2)C(=O)O1 (stereo not given in full) : 125 µg/mL
CCCCCCc1cn(C[C@H]2O[C@@H](O[C@@H]3[C@@H](O)[C@H](N)C[C@H](N)[C@H]3O[C@H]3O[C@H](CN)[C@@H](O)[C@H](O)[C@H]3N)[C@H](O)[C@@H]2O[C@H]2O[C@@H](CN)[C@@H](O)[C@H](O)[C@H]2N)nn1 : 32 µg/mL
NC[C@@H]1O[C@H](O[C@H]2[C@@H](O)[C@H](O[C@@H]3[C@@H](O)[C@H](N)C[C@H](N)[C@H]3O[C@H]3O[C@H](CN)[C@@H](O)[C@H](O)[C@H]3N)O[C@@H]2Cn2cc(CNC(=O)C3CCNCC3)nn2)[C@H](N)[C@@H](O)[C@@H]1O : 64 µg/mL
NCc1cn(C[C@H]2O[C@@H](O[C@@H]3[C@@H](O)[C@H](N)C[C@H](N)[C@H]3O[C@H]3O[C@H](CN)[C@@H](O)[C@H](O)[C@H]3N)[C@H](O)[C@@H]2O[C@H]2O[C@@H](CN)[C@@H](O)[C@H](O)[C@H]2N)nn1 : 64 µg/mL
NC[C@@H]1O[C@H](O[C@H]2[C@@H](O)[C@H](O[C@@H]3[C@@H](O)[C@H](N)C[C@H](N)[C@H]3O[C@H]3O[C@H](CN)[C@@H](O)[C@H](O)[C@H]3N)O[C@@H]2CNC(=O)[C@@H](N)Cc2c[nH]c3ccccc23)[C@H](N)[C@@H](O)[C@@H]1O : 64 µg/mL
CCCCCCCCCCCCCCCCCC(=O)NC[C@H]1O[C@@H](O[C@@H]2[C@@H](O)[C@H](N)C[C@H](N)[C@H]2O[C@H]2O[C@H](CN)[C@@H](O)[C@H](O)[C@H]2N)[C@H](O)[C@@H]1O[C@H]1O[C@@H](CN)[C@@H](O)[C@H](O)[C@H]1N : 2 µg/mL
NC[C@@H]1O[C@H](O[C@H]2[C@@H](O)[C@H](O[C@@H]3[C@@H](O)[C@H](N)C[C@H](N)[C@H]3O[C@H]3O[C@H](CN)[C@@H](O)[C@H](O)[C@H]3N)O[C@@H]2CNC(=O)[C@H]2CCCN2)[C@H](N)[C@@H](O)[C@@H]1O : 64 µg/mL
